Recorded pIC50 values (UniProt:Q9UBF8) are given below.
Where a name gives a salt, the structure may show the parent alone.
Notebook: values listed as pIC50 are -log10 of the concentration (mol/L).

Guide cases for pIC50, answers given:
Cc1ccc(S(=O)(=O)NC2CC3(CC(O)C3)C2)cc1-c1cnc(N)c(-c2cn(C)nc2C)c1 (centres unmarked) [Example 26] | 5.47
Cc1noc(-c2cc(-c3cc(S(=O)(=O)NOC(C)(C)C)ccc3C)cnc2N)n1 [Example 47] | 5.36
CCCONS(=O)(=O)c1ccc(C)c(-c2cnc(N)c(-c3nc(C)no3)c2)c1 [Example 44] | 5.45

Problem: Request - read-out pIC50 | tested on UniProt:Q9UBF8 | compound Cc1ccc(S(=O)(=O)NCCC(C)(C)O)cc1-c1cnc(N)c(-c2cnn(C)c2)c1 [Example 2]
Solution: 5.27

Problem: What about Cc1noc(-c2cc(-c3cc(S(=O)(=O)NCCC(C)(C)O)ccc3C)cnc2N)n1 [Example 5, hydrochloride] ?
Solution: 5.31

Problem: What about Cc1cc(-c2cc(-c3cc(S(=O)(=O)NCC(F)(F)F)ccc3C)cnc2N)on1 [Example 39] ?
Solution: 5.89

Problem: What about Cc1cc(-c2cc(-c3cc(S(=O)(=O)NC[C@H]4C[C@@H](O)C4)ccc3C)cnc2N)on1 [Example 84] ?
Solution: 5.58

----------
Recorded log10 of IC50 values (PI 4-kinase beta (Homo sapiens (Human), UniProt Q9UBF8)) are given below.
Counter-ions that a name gives are not always drawn.
All values: log10 IC50 [µM].

Guide cases for log10 of IC50, answers given:
Cc1cccc(NS(=O)(=O)c2ccc(C)c(-c3cnc(N)c(-c4cnn(CC(F)(F)F)c4)c3)c2)n1 [Example 1] | 0.29
Cc1ncc(-c2cc(-c3cc(S(=O)(=O)NC4CCC(O)(C(F)(F)F)C4)ccc3C)cnc2N)o1 (stereo not drawn) [Example 114.4] | -0.20
Cc1ccc(S(=O)(=O)NCCC(C)(C)O)cc1-c1cnc(N)c(-c2cnn(CC(F)(F)F)c2)c1 [Example 3] | 0.03
Cc1cc(-c2cc(-c3cc(S(=O)(=O)N[C@H]4CC[C@H](CO)CC4)ccc3C)cnc2N)ccn1 [Example 77, hydrochloride] | 0.32
Cc1ncc(-c2cc(-c3cc(S(=O)(=O)NCCO)ccc3C)cnc2N)o1 [Example 104.5] | 0.49
Cc1ncc(-c2cc(-c3cc(S(=O)(=O)NCC4CC4)ccc3C)cnc2N)o1 [Example 104.12] | 0.32
Cc1ncc(-c2cc(-c3cc(S(=O)(=O)NCC4(C)COC4)ccc3C)cnc2N)o1 [Example 69] | 0.38
Cc1ccc(S(=O)(=O)N[C@H]2CC[C@H](O)CC2)cc1-c1cnc(N)c(-c2cnn(C)n2)c1 [Example 4.5, hydrochloride] | 0.72
Cc1noc(-c2cc(-c3cc(S(=O)(=O)NOCC(C)(C)O)ccc3C)cnc2N)n1 [Example 11, hydrochloride salt] | 0.71
Cc1cc(-c2cc(-c3cc(S(=O)(=O)NCC4COC4)ccc3C)cnc2N)on1 [Example 25] | 0.11

Problem: Entry Cc1noc(-c2cc(-c3cc(S(=O)(=O)NCCN)ccc3C)cnc2N)n1 [Example 37.29] has what log10 of IC50?
Solution: 0.85

Problem: What about Cc1ncc(-c2cc(-c3cc(S(=O)(=O)NCCC(C)(C)O)ccc3C)cnc2N)o1 [Example 13, hydrochloride salt] ?
Solution: 0.64

Problem: What about Cc1ncc(-c2cc(-c3cc(S(N)(=O)=O)ccc3C)cnc2N)s1 [Example 74] ?
Solution: 0.70

Problem: What about Cc1ncc(-c2cc(-c3cc(S(=O)(=O)NC4CC5(CC(O)C5)C4)ccc3C)cnc2N)s1 (stereo not drawn) [Example 28] ?
Solution: -0.17

Problem: What about Cc1cc(-c2cc(-c3cc(S(=O)(=O)N4CC[C@H](N(C)C)C4)ccc3C)cnc2N)on1 [Example 19.22, acetic acid salt] ?
Solution: 0.93

----------
biological target: Vps34 (Homo sapiens (Human))
Structures can show the parent of a compound that is named as a salt.
endpoint name: IC50

Guide cases for IC50, answers given:
CCCONS(=O)(=O)c1ccc(C)c(-c2cnc(N)c(-c3nc(C)no3)c2)c1 | > 10 µM
Cc1ccc(S(=O)(=O)NCC(C)(C)O)cc1-c1cnc(N)c(-c2nc(C3CC3)no2)c1 [Example 80, hydrochloride] | > 10 µM

Problem: Entry `Cc1ccc(S(=O)(=O)NCCC(C)(C)O)cc1-c1cnc(N)c(-c2cnn(C)c2)c1` has what IC50?
Solution: > 9.1 µM

Problem: What about `Cc1ncc(-c2cc(-c3cc(S(=O)(=O)NCC4(C)COC4)ccc3C)cnc2N)o1` ?
Solution: 4.4 µM

Problem: What about `Cc1ncc(-c2cc(-c3cc(S(=O)(=O)NCC4(O)CCOCC4)ccc3C)cnc2N)o1` ?
Solution: > 10 µM

Problem: What about Cc1noc(-c2cc(-c3cc(S(=O)(=O)NCC(C)(C)CO)ccc3C)cnc2N)n1 [Example 37.18, hydrochloride] ?
Solution: > 10 µM

Problem: What about `Cc1cc(-c2cc(-c3cc(S(=O)(=O)N[C@H]4CC[C@H](O)CC4)ccc3C)cnc2N)ccn1` ?
Solution: > 10 µM

Problem: What about `Cc1cc(-c2cc(-c3cc(S(=O)(=O)NCCC(C)(C)O)ccc3C)cnc2N)ccn1` ?
Solution: > 9.1 µM

Problem: What about `Cc1ncc(-c2cc(-c3cc(S(N)(=O)=O)ccc3C)cnc2N)s1` ?
Solution: 2.2 µM

Problem: What about `Cc1cc(-c2cc(-c3cc(S(=O)(=O)NCC4(CO)COC4)ccc3C)cnc2N)on1` ?
Solution: > 10 µM

Problem: What about `Cc1noc(-c2cc(-c3cc(S(=O)(=O)NOC(C)(C)C)ccc3C)cnc2N)n1` ?
Solution: > 10 µM

Problem: What about `Cc1noc(-c2cc(-c3cc(S(=O)(=O)NCC(C)(C)O)c(F)cc3C)cnc2N)n1` ?
Solution: > 10 µM

Problem: What about `Cc1ncc(-c2cc(-c3cc(S(=O)(=O)NCCCO)ccc3C)cnc2N)s1` ?
Solution: 0.89 µM

Problem: What about `Cc1noc(-c2cc(-c3cc(S(=O)(=O)NCC4(CO)COC4)ccc3C)cnc2N)n1` ?
Solution: > 10 µM

Problem: What about `Cc1noc(-c2cc(-c3cc(S(=O)(=O)NCC(C)(C)O)c(C)cc3F)cnc2N)n1` ?
Solution: > 10 µM

Problem: What about Cc1noc(-c2cc(-c3cc(S(=O)(=O)NCC4CCOC4)ccc3C)cnc2N)n1 (stereo not shown) ?
Solution: > 10 µM

----------
Reported values of IC50 for individual entries
biological target: mTOR (Homo sapiens (Human)); conditions: read-out: Assay G mTOR IC50
Counter-ions that a name gives are not always drawn.

Guide cases for IC50, answers given:
Cc1ccc(S(=O)(=O)N[C@H]2CC[C@H](O)CC2)cc1-c1cnc(N)c(-c2cnn(C)n2)c1 [Example 4.5, hydrochloride] | > 10 µM
Cc1ncc(-c2cc(-c3cc(S(=O)(=O)NCC(C)(C)O)ccc3C)cnc2N)s1 | 7.9 µM
CCCONS(=O)(=O)c1ccc(C)c(-c2cnc(N)c(-c3nc(C)no3)c2)c1 | > 10 µM

Kindly review the next molecule as well.
Problem: Request - read-out IC50 | tested on mTOR (Homo sapiens (Human)) | molecule Cc1noc(-c2cc(-c3cc(S(=O)(=O)N[C@H]4CC[C@H](CO)CC4)ccc3C)cnc2N)n1 [Example 19, hydrochloride]
Solution: > 10 µM

----------
pIC50: −log10 of the molar value.
Recorded pIC50 values (mTOR (Homo sapiens (Human))) are given below.

Cc1ccc(S(=O)(=O)NCC(C)(C)O)cc1-c1cnc(N)c(-c2cnoc2C)c1 | < 5.00
Cc1noc(-c2cc(-c3cc(S(=O)(=O)NCC4(CO)CCCC4)ccc3C)cnc2N)n1 | < 5.00

Kindly review the next compound as well.
Problem: Request - read-out pIC50 | tested on mTOR (Homo sapiens (Human)) | compound `Cc1cc(-c2cc(-c3cc(S(=O)(=O)NO[C@H]4C[C@H](O)C4)ccc3C)cnc2N)on1`
Solution: < 5.00

----------
Where a name gives a salt, the structure may show the parent alone.
Recorded pIC50 values (PI 4-kinase beta (Homo sapiens (Human), UniProt Q9UBF8)) are given below.
Notebook: values listed as pIC50 are -log10 of the concentration (mol/L).

CCc1cc(-c2cc(-c3cc(S(=O)(=O)NCC(C)(C)O)ccc3C)cnc2N)on1 [Example 4.6, hydrochloride] | 5.57

Kindly review the next compound as well.
Problem: Entry Cc1cc(-c2cc(-c3cc(S(=O)(=O)N[C@@H](C)C4CC4)ccc3C)cnc2N)on1 [Example 19.13, trifluoroacetic acid salt] has what pIC50?
Solution: 5.80

----------
target: Vps34 (Homo sapiens (Human), UniProt Q8NEB9)
Sequence (Q8NEB9 whole entry): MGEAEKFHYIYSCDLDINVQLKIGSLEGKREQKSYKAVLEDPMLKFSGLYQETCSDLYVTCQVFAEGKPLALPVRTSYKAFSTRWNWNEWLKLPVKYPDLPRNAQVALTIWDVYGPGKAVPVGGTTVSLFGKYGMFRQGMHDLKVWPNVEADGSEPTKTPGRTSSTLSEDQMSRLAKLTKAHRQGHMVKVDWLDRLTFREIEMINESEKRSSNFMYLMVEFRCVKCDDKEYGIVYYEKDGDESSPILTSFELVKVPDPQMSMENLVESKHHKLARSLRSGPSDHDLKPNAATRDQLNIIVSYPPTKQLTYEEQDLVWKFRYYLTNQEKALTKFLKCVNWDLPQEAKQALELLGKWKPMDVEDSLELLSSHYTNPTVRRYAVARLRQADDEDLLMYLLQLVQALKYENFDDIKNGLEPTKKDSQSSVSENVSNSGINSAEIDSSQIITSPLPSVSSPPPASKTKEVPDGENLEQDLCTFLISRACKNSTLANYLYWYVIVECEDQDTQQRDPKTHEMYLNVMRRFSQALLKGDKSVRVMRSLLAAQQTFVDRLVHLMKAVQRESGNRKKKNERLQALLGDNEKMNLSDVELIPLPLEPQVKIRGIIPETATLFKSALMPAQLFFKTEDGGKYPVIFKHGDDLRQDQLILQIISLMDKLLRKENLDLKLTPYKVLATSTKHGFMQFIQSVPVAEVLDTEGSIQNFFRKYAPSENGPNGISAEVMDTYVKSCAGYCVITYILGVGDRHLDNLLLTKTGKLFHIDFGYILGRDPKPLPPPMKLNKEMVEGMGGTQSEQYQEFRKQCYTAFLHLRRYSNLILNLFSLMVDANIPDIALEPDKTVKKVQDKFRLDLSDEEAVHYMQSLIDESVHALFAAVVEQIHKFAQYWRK
Reported values of IC50 for individual entries

Guide cases for IC50, answers given:
Cc1noc(-c2cc(-c3cc(S(=O)(=O)NCCC4(O)CCCC4)ccc3C)cnc2N)n1 | > 10 µM
Cc1noc(-c2cc(-c3cc(S(=O)(=O)NC4CCOCC4)ccc3C)cnc2N)n1 | > 10 µM

Kindly review the next molecule as well.
Problem: Request - read-out IC50 | tested on Vps34 (Homo sapiens (Human), UniProt Q8NEB9) | molecule `Cc1cc(-c2cc(-c3cc(S(=O)(=O)NCC4(CO)CCCC4)ccc3C)cnc2N)on1`
Solution: > 10 µM
